# tested system: PAF-Rezeptor (Homo sapiens)
# Construct: endogenous in cells; host or cells: intact human platelets from blood of healthy donors, purified on Sepharose CL-2B
# Sequence (P25105 whole entry): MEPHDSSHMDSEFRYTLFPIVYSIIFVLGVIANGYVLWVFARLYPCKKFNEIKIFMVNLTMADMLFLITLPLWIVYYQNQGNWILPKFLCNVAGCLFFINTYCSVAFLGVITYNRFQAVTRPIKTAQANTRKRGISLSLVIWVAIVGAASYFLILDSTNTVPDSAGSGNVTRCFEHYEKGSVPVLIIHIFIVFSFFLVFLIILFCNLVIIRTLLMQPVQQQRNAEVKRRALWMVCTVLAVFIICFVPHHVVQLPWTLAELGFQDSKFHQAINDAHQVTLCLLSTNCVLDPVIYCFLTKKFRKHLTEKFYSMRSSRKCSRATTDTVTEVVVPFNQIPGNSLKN
# test description: [^3H]PAF receptor binding on vital human platelets
# reported conditions: four separated isomers of Example 9d; read-out: [^3H]PAF-Bindung (Ki)
# Procedure: [^3H]PAF-Rezeptor-Bindung an vitalen humanen Blutplättchen Bestimmt wird die konkurrierende Wechselwirkung von Prüfsubstanzen (hier PAF-Antagonisten) mit der bekannten Wechselwirkung des Radioliganden [^3H]PAF zum gleichen Rezeptor. Die Bindungsstudien wurden an vitalem menschlichen Thrombozyten vorgenommen. Blutproben von gesunden Spendern wurden mit ACD-Puffer verdünnt und zentrifugiert (15 Min., 160 x g). […]
pKi: −log10 of the molar value.
This section presents compounds with their documented pKi values.
value type: pKi

[[record]]
compound = "Cc1nnc2n1-c1sc3c(c1C(c1ccccc1Cl)=NC2C)CC(C(=O)N1CCOCC1)C3 (single isomer, unassigned; (+)) [(+) 9dB]"
reported = 5.52

[[record]]
compound = "Cc1nnc2n1-c1sc3c(c1C(c1ccccc1Cl)=NC2C)CC(C(=O)N1CCOCC1)C3 (single isomer, unassigned; (-)) [(-) 9dA]"
reported = 7.15

[[record]]
compound = "Cc1nnc2n1-c1sc3c(c1C(c1ccccc1Cl)=NC2C)CC(C(=O)N1CCOCC1)C3 (single isomer, unassigned; (+)) [(+) 9dA]"
reported = 6.40


Data origin: patent EP0368175A1
